Test system: OVCAR-3 ovarian
assay.summary: NCI tumour cell line growth inhibition, 48 h
Here, each record is paired with measured TGI data.

Cc1cccc(N=C2NC(=O)C(CC(=O)Nc3ccccc3Cl)S2)c1 (configuration not stated) | > 100 µM
O=C(CC(=O)C1CCOC1=O)C(=O)Nc1ccc(Cl)cc1 (configuration not stated) | > 100 µM
CC1=NN(C(=O)c2nn(-c3ccc(Cl)cc3)cc2O)C(=O)C1 | > 27.9 µM
OC1(c2ccc3ccccc3c2)c2c(c3ccccc3c3ccccc23)C2=NCCN21 (configuration not stated) | 36.9 µM

Exercise: Item O=C(NC1C=Nc2ccccc2NC1=O)c1ccccc1Cl (configuration not stated) has what recorded TGI?
Solution: > 100 µM

Exercise: Next record, please: COc1cc(-c2oc3c(OC)c(O)cc(O)c3c(=O)c2OC)ccc1O
Solution: 22.3 µM

Exercise: Next entry: COC(=O)C1=C(O)C(C(=O)OC)[C@@]2(O)[C@@H](C(=O)OC)CC[C@@H]1[C@@H]2C(=O)OC (some centres not stated)
Solution: 58.8 µM

Exercise: Now this one: COc1ccc(N2C(=O)C3c4[nH]c5ccc(OCc6ccccc6)cc5c4C4CCC(C(C)C)CC4C3C2=O)cc1 (configuration not stated)
Solution: > 100 µM

###

Tested on: RXF 393 renal
assay.summary: NCI tumour cell line growth inhibition, 48 h; in the data active = GI50 below about 0.43 µM; inactive = the rest
// one of y (active), n (inactive), no free text

CNc1ncc2cc(Oc3ccc(F)cc3F)c(=O)n(C)c2n1 | n
CCc1nc(N)nc(N)c1C#CC(C)c1cc(-c2ccnc(C)c2)c2oc(C)nc2c1 (stereo unspecified) | y
CN(CCCN(C)CCC1CCCCC1)CCC1CCCCC1 | n
Cc1cn(Cc2ccccc2CCl)c(=O)n(Cc2ccccc2CCl)c1=O | n
O=c1[nH]nc(-c2ccccc2)c2c(-c3ccccc3)onc12 | n

Exercise: Hi, sorry to bother you, what did the test record for O=C(NN1C(=O)CSC12CCC(c1ccccc1)CC2)c1[nH]c2ccc(F)cc2c1-c1ccccc1 (stereo unspecified) ?
Solution: n

Exercise: Another compound to look at: Nc1cc(-c2ccccc2)n(C(=O)Nc2ccc(Oc3ccccc3)cc2)n1
Solution: n

Exercise: Could you do the same for Cc1ccccc1NC(=O)c1cc2ccccc2cc1O , please?
Solution: n

Exercise: Another: NS(=O)(=O)c1ccc(N2N=C(c3cccs3)CC2c2ccccc2O)cc1 (stereo unspecified)
Solution: n

Exercise: Next up: O=C(CN1C(=O)S/C(=C\C(Cl)=C\c2ccccc2)C1=O)NCCCn1ccnc1
Solution: n

Exercise: Next up: C=C1C(=O)O[C@H]2[C@H]1CC/C(CNC(=O)/C=C/c1ccc(Cl)cc1Cl)=C\CC[C@@]1(C)O[C@@H]21
Solution: y

###

Test system: OVCAR-5 ovarian
assay.summary: NCI tumour cell line growth inhibition, 48 h
Overview of recorded GI50 for various compounds

Please review the entries below; each comes with its answer.
O=C1C=C(OCCCl)C(=O)c2c(O)ccc(O)c21 | 2.01 µM
CC(=O)n1c(-c2ccc(Cl)c(Cl)c2)cn(-c2ccc(Cl)cc2)c1=O | 55 µM
O=C1c2ccn(CCCCN(CCO)CCO)c2C(=O)c2c1c(O)c1ccccc1c2O | 19.1 µM

Kindly review the next compound as well.
Exercise: Consider the compound COc1cc2c(cc1OCCCCCn1c3ccccc3c3ccccc31)N=C[C@@H]1CCCN1C2=O and give its measured GI50.
Solution: 2.42 µM
